target: SHP1 (Homo sapiens, UniProt P29350); construct: made in house; host or cells: adenovirus vector; test: Phosphatase profile: SHP1 inhibition (DIFMUP fluorescence); type: biochemical; details: Table 6; read-out: SHP1 IC50
Sequence (P29350 whole entry): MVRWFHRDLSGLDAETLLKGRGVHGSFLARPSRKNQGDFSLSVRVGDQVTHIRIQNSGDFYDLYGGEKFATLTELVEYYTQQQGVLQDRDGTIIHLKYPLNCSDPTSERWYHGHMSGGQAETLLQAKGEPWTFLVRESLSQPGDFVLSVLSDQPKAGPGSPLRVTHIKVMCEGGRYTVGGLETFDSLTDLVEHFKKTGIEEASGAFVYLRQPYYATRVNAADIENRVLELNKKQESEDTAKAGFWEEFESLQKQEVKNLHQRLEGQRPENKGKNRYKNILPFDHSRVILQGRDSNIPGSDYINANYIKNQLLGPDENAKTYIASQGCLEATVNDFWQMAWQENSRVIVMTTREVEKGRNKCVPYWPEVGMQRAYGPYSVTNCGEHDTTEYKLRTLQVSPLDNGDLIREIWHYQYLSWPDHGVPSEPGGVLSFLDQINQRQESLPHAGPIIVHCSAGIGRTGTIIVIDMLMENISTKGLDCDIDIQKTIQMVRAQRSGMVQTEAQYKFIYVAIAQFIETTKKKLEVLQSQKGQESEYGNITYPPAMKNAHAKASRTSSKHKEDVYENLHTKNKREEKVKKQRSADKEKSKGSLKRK
Value Type: pIC50
Please keep in mind that pIC50 is minus log10 of the molar concentration; only the number is needed.

O=c1oc2c(Sc3ccc4ccccc4c3)cc(O)c(Sc3ccc4ccccc4c3)c2s1 5.27

Read the next record carefully.
Q) Field request: pIC50 | item: `O=c1oc2c(Sc3ccc4ccccc4c3)cc(O)cc2s1`
A) 4.96

* * *

target: SHP2 (Homo sapiens)
Sequence (Q06124 whole entry, species assumed): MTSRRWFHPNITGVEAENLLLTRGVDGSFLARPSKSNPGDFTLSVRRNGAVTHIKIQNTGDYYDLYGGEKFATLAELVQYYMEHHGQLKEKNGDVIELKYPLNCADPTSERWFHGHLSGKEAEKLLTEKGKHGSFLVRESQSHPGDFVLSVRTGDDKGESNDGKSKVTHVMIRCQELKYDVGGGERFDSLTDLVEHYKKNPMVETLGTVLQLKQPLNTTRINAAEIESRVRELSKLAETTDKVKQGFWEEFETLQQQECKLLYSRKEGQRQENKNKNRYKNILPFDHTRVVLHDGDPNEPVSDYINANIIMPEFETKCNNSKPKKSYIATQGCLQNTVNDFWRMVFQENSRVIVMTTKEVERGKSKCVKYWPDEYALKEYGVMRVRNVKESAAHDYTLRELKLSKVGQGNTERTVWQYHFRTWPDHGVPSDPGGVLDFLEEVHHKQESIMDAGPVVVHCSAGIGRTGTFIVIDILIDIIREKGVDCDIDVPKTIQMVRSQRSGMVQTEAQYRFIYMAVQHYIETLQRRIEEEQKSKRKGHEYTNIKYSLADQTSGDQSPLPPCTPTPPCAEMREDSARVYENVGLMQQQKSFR
Value Type: pIC50
Lab note: report pIC50 as minus log10 of the concentration in molar units, number only.

Q) Item: O=c1oc2c(Sc3ccc4ccccc4c3)cc(O)c(Sc3ccc4ccccc4c3)c2s1 [Compound 30] Test system: SHP2 (Homo sapiens) Read-out: pIC50 Value: ?
A) 4.74

* * *

Tested on: SCG neurons
Experiment: Protection of SCG neurons from anti-NGF killing
Format: cell-based, Sprague Dawley rats
Details: Rattus norvegicus, Neuron, 48 h, read-out: IC50, rescue from anti-NGF killing of cultured SCG neurons
Experimental: Neurotrophins are critical to the growth, development, and survival of small fiber neurons of the PNS. SCG neurons are neurons of the PNS that undergo apoptosis upon NGF withdrawal. […] After 5 days the NGF is removed by either the addition of anti-NGF polyclonal antibody (Sigma) or by repeated washings (4 times) with NGF free media, resulting in the apoptosis of up to 90% of the neurons after 48 hours, as measured by MTS staining. […]
Value Type: pIC50
Units for pIC50: none; it is -log10 of a concentration expressed in mol/L.

Worked cases, pIC50 given:
O=c1oc2c(-c3ccc(Br)cc3)cc(O)cc2s1 4.70
COc1ccc(NC(=O)Oc2cc(Sc3ccc4ccccc4c3)c3oc(=O)sc3c2)cc1 4.80
Cc1cc(OC(=O)NC2CCCCC2)cc2sc(=O)oc12 4.46

Q) For the compound `O=c1oc2c(-c3ccc(Cl)cc3Cl)cc(O)cc2s1` , what pIC50 is on record?
A) 5.15

* * *

Molecular target: SHP1 (Homo sapiens, UniProt P29350)
Construct: made in house; host or cells: adenovirus vector
Experiment: Phosphatase profile: SHP1 inhibition (DIFMUP fluorescence)
Format: biochemical
Settings: FIG. 1 legend; read-out: SHP1 IC50 (FIG. 1 inhibition curve)
Protocol: A) SHP1 and SHP2: SHP1 and SHP2 adenovirus vectors were prepared. SHP1 and SHP2 were independently over expressed, isolated and purified using FPLC. Enzyme was diluted to 1000-1400 FU/min. Enzyme (45 μL) was uniformLy plated in 96 well plates and treated with serial dilutions of compound (2 μL in DMSO). […] The solutions are allowed to incubate at RT for 10 minutes prior to reading the fluorescence, to provide IC50 curves using LSW Data Analysis Tool Box (MDL).
Value Type: IC50 (µM)
API: value field is a number in µM; no unit string.

Q) Please look up its IC50: O=c1oc2c(Sc3ccc4ccccc4c3)cc(O)cc2s1 [Compound 23]
A) 10.6
